# tested.on: T1, recombinant human soluble gpNMB (recombinant human gpNMB-FLAG-His) (human, UniProt Q14956 23-498)
# T1 sequence: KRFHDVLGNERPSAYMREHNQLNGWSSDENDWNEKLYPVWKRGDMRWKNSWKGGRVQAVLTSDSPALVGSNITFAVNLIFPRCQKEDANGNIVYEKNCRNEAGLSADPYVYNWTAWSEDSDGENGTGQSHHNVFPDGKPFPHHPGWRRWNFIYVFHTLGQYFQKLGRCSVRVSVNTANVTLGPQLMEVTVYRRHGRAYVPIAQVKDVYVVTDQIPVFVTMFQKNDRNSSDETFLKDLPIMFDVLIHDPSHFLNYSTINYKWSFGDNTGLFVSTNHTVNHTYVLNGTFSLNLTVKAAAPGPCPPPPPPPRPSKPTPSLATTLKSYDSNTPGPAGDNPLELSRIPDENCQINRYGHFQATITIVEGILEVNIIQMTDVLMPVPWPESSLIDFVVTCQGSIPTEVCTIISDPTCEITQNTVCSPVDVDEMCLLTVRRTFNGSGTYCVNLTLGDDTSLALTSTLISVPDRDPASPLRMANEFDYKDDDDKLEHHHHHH
# test: antigen ELISA
For each entry below, report its EC50 value.
Answers are plain numbers, in nM.

Past entries and their recorded results:
binder: hGPN18-2_H2L3 VH G26A (antibody, V domains shown) VH: QVQLVQSGPGLVQPTQTLTLTCSFSAFSLSTSVMGVGWIRQPSGKGLEWLADIWWDDDKDYNPSLKSRLTISKDTSKNQVVLTMTNMDTVDTATYYCARTYYSNYEYYGMDYWGQGTLVTVSS VL: DIVMTQSPDSLAVSLGERATINCRSSQTIILSNGNTYLEWYQQKPGQPPKLLIYKVSNRFSGVPDRFSGSGSGTDFTLTISSLQAEDVAVYYCFQGSHVPFTFGSGTKLEIKR
parameter: EC50
recorded.measurement: 3.92
--
binder: hGPN18-2_H2L3 VH I53A (antibody, V domains shown) VH: QVQLVQSGPGLVQPTQTLTLTCSFSGFSLSTSVMGVGWIRQPSGKGLEWLADAWWDDDKDYNPSLKSRLTISKDTSKNQVVLTMTNMDTVDTATYYCARTYYSNYEYYGMDYWGQGTLVTVSS VL: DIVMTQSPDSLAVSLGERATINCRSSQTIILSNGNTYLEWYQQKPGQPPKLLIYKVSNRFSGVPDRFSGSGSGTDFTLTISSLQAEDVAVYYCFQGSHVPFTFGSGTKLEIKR
parameter: EC50
recorded.measurement: 6.94
--
binder: hGPN18-2_H2L3 VH D58A (antibody, V domains shown) VH: QVQLVQSGPGLVQPTQTLTLTCSFSGFSLSTSVMGVGWIRQPSGKGLEWLADIWWDDAKDYNPSLKSRLTISKDTSKNQVVLTMTNMDTVDTATYYCARTYYSNYEYYGMDYWGQGTLVTVSS VL: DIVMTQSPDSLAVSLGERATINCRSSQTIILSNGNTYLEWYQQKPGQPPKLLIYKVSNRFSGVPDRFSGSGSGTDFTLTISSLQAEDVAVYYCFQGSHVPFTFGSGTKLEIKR
parameter: EC50
recorded.measurement: 10.2

State recorded EC50 for all listed binders.
1. hGPN18-2_H2L3 VH D52A (antibody, V domains shown) VH: QVQLVQSGPGLVQPTQTLTLTCSFSGFSLSTSVMGVGWIRQPSGKGLEWLAAIWWDDDKDYNPSLKSRLTISKDTSKNQVVLTMTNMDTVDTATYYCARTYYSNYEYYGMDYWGQGTLVTVSS VL: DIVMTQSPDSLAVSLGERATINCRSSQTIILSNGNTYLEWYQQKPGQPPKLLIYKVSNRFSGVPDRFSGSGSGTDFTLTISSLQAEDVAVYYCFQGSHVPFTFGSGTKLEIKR
2. hGPN18-2_H2L3 VH D60A (antibody, V domains shown) VH: QVQLVQSGPGLVQPTQTLTLTCSFSGFSLSTSVMGVGWIRQPSGKGLEWLADIWWDDDKAYNPSLKSRLTISKDTSKNQVVLTMTNMDTVDTATYYCARTYYSNYEYYGMDYWGQGTLVTVSS VL: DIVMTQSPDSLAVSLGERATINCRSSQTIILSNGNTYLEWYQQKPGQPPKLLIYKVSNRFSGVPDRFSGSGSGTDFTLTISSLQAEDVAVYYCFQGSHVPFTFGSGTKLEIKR
3. hGPN18-2_H2L3 VH G35A (antibody, V domains shown) VH: QVQLVQSGPGLVQPTQTLTLTCSFSGFSLSTSVMAVGWIRQPSGKGLEWLADIWWDDDKDYNPSLKSRLTISKDTSKNQVVLTMTNMDTVDTATYYCARTYYSNYEYYGMDYWGQGTLVTVSS VL: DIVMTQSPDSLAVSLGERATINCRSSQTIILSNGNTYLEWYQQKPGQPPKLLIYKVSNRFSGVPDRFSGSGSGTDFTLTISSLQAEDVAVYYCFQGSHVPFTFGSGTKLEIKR
4. hGPN18-2_H2L3 VH W55A (antibody, V domains shown) VH: QVQLVQSGPGLVQPTQTLTLTCSFSGFSLSTSVMGVGWIRQPSGKGLEWLADIWADDDKDYNPSLKSRLTISKDTSKNQVVLTMTNMDTVDTATYYCARTYYSNYEYYGMDYWGQGTLVTVSS VL: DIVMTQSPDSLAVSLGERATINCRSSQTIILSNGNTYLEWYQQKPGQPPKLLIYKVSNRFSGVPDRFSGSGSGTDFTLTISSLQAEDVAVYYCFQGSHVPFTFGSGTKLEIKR
5. hGPN18-2_H2L3 VH K59A (antibody, V domains shown) VH: QVQLVQSGPGLVQPTQTLTLTCSFSGFSLSTSVMGVGWIRQPSGKGLEWLADIWWDDDADYNPSLKSRLTISKDTSKNQVVLTMTNMDTVDTATYYCARTYYSNYEYYGMDYWGQGTLVTVSS VL: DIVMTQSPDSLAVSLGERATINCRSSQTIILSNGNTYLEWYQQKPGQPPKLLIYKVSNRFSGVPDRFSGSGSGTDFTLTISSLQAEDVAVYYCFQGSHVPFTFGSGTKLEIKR
6. hGPN18-2_H2L3 VH S28A (antibody, V domains shown) VH: QVQLVQSGPGLVQPTQTLTLTCSFSGFALSTSVMGVGWIRQPSGKGLEWLADIWWDDDKDYNPSLKSRLTISKDTSKNQVVLTMTNMDTVDTATYYCARTYYSNYEYYGMDYWGQGTLVTVSS VL: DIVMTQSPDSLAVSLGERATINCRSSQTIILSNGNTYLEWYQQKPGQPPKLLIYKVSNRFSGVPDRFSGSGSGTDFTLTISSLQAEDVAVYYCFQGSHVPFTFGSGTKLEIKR

1: 100; 2: 3.13; 3: 5.16; 4: 8.36; 5: 4.42; 6: 3.22

Record hGPN18-2_H2L3 VH G37A (antibody, V domains shown) VH: QVQLVQSGPGLVQPTQTLTLTCSFSGFSLSTSVMGVAWIRQPSGKGLEWLADIWWDDDKDYNPSLKSRLTISKDTSKNQVVLTMTNMDTVDTATYYCARTYYSNYEYYGMDYWGQGTLVTVSS VL: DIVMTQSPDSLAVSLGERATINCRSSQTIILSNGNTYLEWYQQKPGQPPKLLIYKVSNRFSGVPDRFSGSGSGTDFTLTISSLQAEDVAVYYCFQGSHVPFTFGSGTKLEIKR , field EC50: 3.32
